# target_of_assay: Peroxisome proliferator-activated receptor gamma (Homo sapiens)
# Sequence (P37231 whole entry, the tested form may be a part): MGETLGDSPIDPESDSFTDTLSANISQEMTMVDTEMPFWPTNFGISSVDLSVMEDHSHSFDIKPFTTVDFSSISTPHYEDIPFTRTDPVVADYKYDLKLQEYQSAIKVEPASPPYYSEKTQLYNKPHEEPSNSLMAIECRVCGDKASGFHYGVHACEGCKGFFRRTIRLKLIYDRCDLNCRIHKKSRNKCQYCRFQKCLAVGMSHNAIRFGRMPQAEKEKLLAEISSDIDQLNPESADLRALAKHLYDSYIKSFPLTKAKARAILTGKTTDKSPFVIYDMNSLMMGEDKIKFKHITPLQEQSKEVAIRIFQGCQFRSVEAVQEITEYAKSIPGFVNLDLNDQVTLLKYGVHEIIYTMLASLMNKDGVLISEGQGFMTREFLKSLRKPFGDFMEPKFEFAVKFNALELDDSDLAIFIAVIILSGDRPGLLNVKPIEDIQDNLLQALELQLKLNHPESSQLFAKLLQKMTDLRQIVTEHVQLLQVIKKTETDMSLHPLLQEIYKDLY
# assay_comment: Agonist activity at human PPARgamma expressed in african green monkey COS7 cells by Gal4 transactivation assay
reported_property: EC50 (µM)
Kindly provide the numeric value in µM only, without the unit symbol.

Please review the following examples before continuing.
molecule="CCCCC(Sc1ccc(OCCCOc2ccc(C)cc2)cc1)C(=O)O (stereo not drawn)" target_of_assay="Peroxisome proliferator-activated receptor gamma (Homo sapiens)" reported_value=0.93
molecule="CCCCC(Sc1ccc(OCCCOc2ccccc2C)cc1)C(=O)O (stereo not drawn)" target_of_assay="Peroxisome proliferator-activated receptor gamma (Homo sapiens)" reported_value=2.3
molecule="CCCCC(Cc1ccc(OCCCOc2cccc(C)c2C)cc1)C(=O)O (stereo not drawn)" target_of_assay="Peroxisome proliferator-activated receptor gamma (Homo sapiens)" reported_value=4.2
molecule="CCCCC(Sc1ccc(OCCCOc2ccc(C)c(C)c2)cc1)C(=O)O (stereo not drawn)" target_of_assay="Peroxisome proliferator-activated receptor gamma (Homo sapiens)" reported_value=3.5
molecule=Cc1cccc(OCCCOc2ccc(SCC(=O)O)cc2)c1C target_of_assay="Peroxisome proliferator-activated receptor gamma (Homo sapiens)" reported_value=3.8

Sample CCCCC(Sc1ccc(OCCCOc2cccc(OC)c2)cc1)C(=O)O (stereo not drawn) ; EC50 observed: 1.2

Sample CCCCC(Sc1ccc(OCCCOc2cccc(C)c2C)cc1)C(=O)O (stereo not drawn) ; EC50 observed: 3

Sample CCCCC(Sc1ccc(OCCCOc2cccc(C)c2)cc1)C(=O)O (stereo not drawn) ; EC50 observed: 3

---

Activity values by entry
# target_of_assay: Peroxisome proliferator-activated receptor gamma (Homo sapiens) (UniProt P37231)
# Sequence (P37231 whole entry, the tested form may be a part): as above
# assay_comment: Agonist activity at human PPARgamma expressed in african green monkey COS7 cells at 1 uM by Gal4 transactivation assay relative to pioglitazone
# Assay type: functional, cell-based
# conditions: COS-7
Kindly provide the numeric value in % only, without the unit symbol.

Please review the following examples before continuing.
compound="CCCCC(Sc1ccc(OCCCOc2cccc(C(C)C)c2)cc1)C(=O)O (centres undefined)" reported_value=91
compound="CCCCC(Sc1ccc(OCCCOc2cccc(C)c2C)cc1)C(=O)O (centres undefined)" reported_value=82
compound="CCCCC(Sc1ccc(OCCCOc2ccccc2C(C)C)cc1)C(=O)O (centres undefined)" reported_value=92

Moving on to the next compound.
Sample `CCCC[C@@H](Sc1ccc(OCCCOc2cccc(C)c2C)cc1)C(=O)O` ; Activity observed: 125
